Numbers sourced from ChEMBL document CHEMBL1201862.

Biological target: Rac GTPase-activating protein 1 (Homo sapiens)
Sequence (Q9H0H5 whole entry): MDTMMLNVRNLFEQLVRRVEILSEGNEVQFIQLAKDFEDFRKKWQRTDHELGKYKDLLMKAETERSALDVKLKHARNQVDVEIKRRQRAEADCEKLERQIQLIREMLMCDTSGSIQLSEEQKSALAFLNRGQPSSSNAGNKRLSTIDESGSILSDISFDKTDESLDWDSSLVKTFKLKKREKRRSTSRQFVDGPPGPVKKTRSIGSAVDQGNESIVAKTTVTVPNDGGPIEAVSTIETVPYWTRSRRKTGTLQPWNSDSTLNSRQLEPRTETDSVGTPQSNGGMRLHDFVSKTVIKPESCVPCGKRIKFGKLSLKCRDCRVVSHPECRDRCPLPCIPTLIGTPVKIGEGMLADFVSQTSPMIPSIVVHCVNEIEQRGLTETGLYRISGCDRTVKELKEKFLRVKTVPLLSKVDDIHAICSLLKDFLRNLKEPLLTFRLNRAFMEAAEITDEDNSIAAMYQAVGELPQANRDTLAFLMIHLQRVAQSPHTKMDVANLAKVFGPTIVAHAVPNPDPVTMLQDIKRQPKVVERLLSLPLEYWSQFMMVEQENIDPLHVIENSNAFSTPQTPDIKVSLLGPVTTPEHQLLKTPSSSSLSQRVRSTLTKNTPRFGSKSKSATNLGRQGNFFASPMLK
Test: MgcRacGAP GTPase-activating activity inhibitors, confirmation, biochemical, ADP Hunter fluorescence, primary and confirmatory (AID 624330)
Assay type: functional
The source made the active and inactive calls.
parameter: IC50

> print(dat)
                          molecule     readout.value
1  Cc1ccc(-c2csc3n[nH]c(=S)n23)cc1  58.1 µM (active)

Prompt line: Provide measured IC50 value, entry: "Cc1ccn2c(Nc3ccc4c(c3)OCO4)c(-c3ccc(O)cc3)nc2c1"
Response line: 39.7 µM (active)

Prompt line: Provide measured IC50 value, entry: "COc1cc(/C=C2\C(=O)N(CCC#N)N=C2C)ccc1OCC(=O)Nc1ccccc1"
Response line: 144 µM (active)

Prompt line: Provide measured IC50 value, entry: "OC1CCN(C(S)=Nc2ccc(Nc3ccccc3)cc2)CC1"
Response line: 38.7 µM (active)

* * *

Target: Zinc finger protein mex-5 (Caenorhabditis elegans, UniProt Q9XUB2)
Sequence (Q9XUB2 whole entry): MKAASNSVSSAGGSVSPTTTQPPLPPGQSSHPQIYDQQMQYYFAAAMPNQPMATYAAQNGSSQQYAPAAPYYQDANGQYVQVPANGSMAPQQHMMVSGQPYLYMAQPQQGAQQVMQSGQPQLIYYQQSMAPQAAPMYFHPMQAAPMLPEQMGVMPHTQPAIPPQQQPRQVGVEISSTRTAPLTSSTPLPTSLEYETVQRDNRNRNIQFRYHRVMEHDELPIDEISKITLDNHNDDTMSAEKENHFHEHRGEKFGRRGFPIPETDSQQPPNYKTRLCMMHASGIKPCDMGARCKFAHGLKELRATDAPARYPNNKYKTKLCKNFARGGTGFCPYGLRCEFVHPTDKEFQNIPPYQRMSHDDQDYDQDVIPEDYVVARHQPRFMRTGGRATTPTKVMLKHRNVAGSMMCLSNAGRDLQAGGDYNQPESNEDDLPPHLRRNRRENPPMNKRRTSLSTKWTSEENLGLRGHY
Test: MEX-5/TCR-2 RNA interaction inhibitors, dose response, biochemical, C. elegans, fluorescence polarization (AID 1960)
Active and inactive are the calls of the source.
parameter: EC50

Solved entries:
> print(dat)
                                   compound  parameter            readout.value
1  Cn1cc(/C=N/n2cnc3scc(-c4ccc(Cl)cc4)c3c2=O)c2ccccc21       EC50    > 300 µM (not active)
2  Cc1nn2c(N3CCOCC3)c3c(nc2c1-c1ccccc1)CCCC3       EC50    > 300 µM (not active)
3  COC(=O)c1cc(C(=O)OC)cc(-n2c(C)cc(C=O)c2C)c1       EC50    > 300 µM (not active)
4  COC(=O)c1ccc(-n2c(C)cc(C(=O)COC(=O)CNS(=O)(=O)c3ccc(C)cc3)c2C)cc1       EC50    > 300 µM (not active)
5  O=c1/c(=C\c2ccc(O)cc2)sc2nc(-c3ccccc3)c(-c3ccccc3)n12       EC50  > 300 µM (inconclusive)

Prompt line: Provide measured EC50 value, entry: "CCCCN1C(=O)NC(=O)/C(=C/c2c[nH]c3ccccc23)C1=O"
Response line: 29.9 µM (active)

Prompt line: Provide measured EC50 value, entry: "Cc1cccc(NC(=O)CN2C(=O)N/C(=C\c3cccn3-c3cccc(C(=O)O)c3)C2=O)c1"
Response line: > 300 µM (not active)

Prompt line: Provide measured EC50 value, entry: COC(=O)C1=NN(C(=O)c2ccc(C)cc2)C(O)(c2ccc(Cl)cc2)C1 (stereo not given)
Response line: 37.7 µM (inconclusive)

Prompt line: Provide measured EC50 value, entry: CCOC(=O)N1CCC(NC(=O)C(Cc2ccccc2)NC(=O)C2CCCCC2)CC1 (stereo not given)
Response line: > 300 µM (not active)

Prompt line: Provide measured EC50 value, entry: "O=C1CNC(=S)N1CCc1ccc(O)c(O)c1"
Response line: 26.8 µM (active)
